This collection of values is drawn from the supplement of paper PMC9170038.

System: MS2 coat protein
procedure.text: apparent KD of MS2 coat protein; designed switch direction (-1 OFF switch, 1 ON switch): -1; higher = weaker reporter binding
stated.conditions: input ligand: microRNA oligo, concentration not stated
Everything with apparent KD of MS2 coat protein lower than 30 nM is f; everything else, including exactly 30 nM, is t.

See these solved cases before continuing.
macromolecule.sequence	class.label
AUAAAUCAUGUAGGAUAUGCGUGGCGAAGCUAUGCAGAAGGACAUGAGGAUCACCCAUGUGCUUCCGUCUGCGUACAGACGGUA [Mat - Exclusion NG 1 - Mod of JL - D10] (Eterna round: R96, puzzle: Exclusion NG 1)	t
GCCUACCAGCUAGGAUAUGCAGUACAGUAAAAUGUAGAAGGAGCACGAUCCAGACAUGAGGAUCACCCAUGUGGGCGGCAGGCA [Raartive] (Eterna round: R96, puzzle: Exclusion NG 1)	f
UUAAUUAGCUCGCUAGAUCCUCACAUGAGGAUCACCCAUGUGCAGGAUAUCAGCUCGUUUAGAGCUGAGAAGGGCACUGCGAGC [ExNG3/10-A2] (Eterna round: R96, puzzle: Exclusion NG 3)	t
UACAUGAGGAUCACCCAUGUUUUGUCGUGUAUGGUAUUUAUCUAGGAUAUCAAUCUAUUAAUUUAUGAGAAGGAGAAUAUUAAU [JMF's solution 52] (Eterna round: R96, puzzle: Exclusion NG 3)	f
ACAUGAGGAUCACCCAUGUAAACAUGAUGGCUGAUGUAGAGCUAGGAUAUGAGUGAAUAUCUAUCUCAGAAGGAGCUUGACUGG [Deportation 46 - Jieux - Exclusion NG 3] (Eterna round: R96, puzzle: Exclusion NG 3)	f

Is it the case that GUUCGUGGGCAAGGAUAUCCUACGCUGUUCUGGUUCGUGUCUGUCACAUGAGGAUCACCCAUGUGGGAGAAGGUGCAUUUGGGU [Design 57] (Eterna round: R96, puzzle: Exclusion NG 2) has apparent KD of MS2 coat protein reaching or exceeding 30 nM? f
